test-system: T1, CLDN6 endogenously expressed by human cancer cell lines (ARK2, OVCA429) (human, UniProt P56747 1-220)
T1 construct: Untagged endogenous protein; also called Endogenous CLDN6+
T1 sequence: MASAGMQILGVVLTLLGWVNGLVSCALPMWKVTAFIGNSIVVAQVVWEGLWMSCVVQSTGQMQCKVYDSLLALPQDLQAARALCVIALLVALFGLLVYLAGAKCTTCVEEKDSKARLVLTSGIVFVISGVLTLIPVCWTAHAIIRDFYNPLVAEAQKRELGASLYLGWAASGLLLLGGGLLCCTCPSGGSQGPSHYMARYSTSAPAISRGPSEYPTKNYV
test-method-notes: FACS, 1.5 µg Ab, OVCA429 cells
measurement-type: FACS fluorescence
In your answer, state the number alone without any accompanying words.

binder	experimental-result
AB3-chim (antibody, V domains shown, 'chim' is the pre-humanized form (parental variable regions); also called pre-humanized (chimeric) form of AB3) VH: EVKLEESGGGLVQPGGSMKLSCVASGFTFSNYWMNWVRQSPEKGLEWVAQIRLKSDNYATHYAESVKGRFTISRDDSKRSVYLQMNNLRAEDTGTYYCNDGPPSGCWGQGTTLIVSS VL: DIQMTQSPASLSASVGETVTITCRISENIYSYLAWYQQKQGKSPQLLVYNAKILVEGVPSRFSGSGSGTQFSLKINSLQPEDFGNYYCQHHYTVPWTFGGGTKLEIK	138000

# next binder below
Query: Entry AB3-5 (antibody, V domains shown, also called Humanized AB 3-5) VH: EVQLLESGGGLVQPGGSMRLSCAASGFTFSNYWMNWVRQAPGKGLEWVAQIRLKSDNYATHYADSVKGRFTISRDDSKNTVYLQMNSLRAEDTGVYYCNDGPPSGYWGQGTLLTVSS VL: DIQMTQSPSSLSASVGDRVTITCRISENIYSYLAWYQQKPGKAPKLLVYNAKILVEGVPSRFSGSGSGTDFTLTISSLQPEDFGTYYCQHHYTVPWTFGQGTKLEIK has what FACS fluorescence?
Response: 2950
